Test system: SN12C
Test: Cytotoxicity against human SN12C cells assessed as cellular growth at 10 uM by SRB assay
Assay type: functional
Listing of recorded Activity by entry.

[[record]]
smiles = "O=c1/c(=C/c2ccccc2)sc2nc(-c3ccc(Cl)cc3Cl)nn12"
measured_attribute = "Activity"
observed_value = "106.99%"


Sure, the documented Activity for `CC1(C)CCc2cc(-c3ccn(S(=O)(=O)c4ccc(Cl)cc4)n3)ccc2O1` is 72.79%

Lab note: measured Activity of `Nc1c(C(=O)Nc2ccc(Cl)c(Cl)c2)sc2nc(-c3cccs3)ccc12` was 89.08%

Field Activity (entry `CC1(C)CC(=O)c2cc3c(N)c(C(=O)Nc4ccccc4Cl)sc3nc2C1` ) reads 104.5%

Record `N#Cc1ccc(-n2nnc3ccccc32)cc1C#N` . Reported Activity: 101.03%

Entry under test: `Nc1c(C(=O)Nc2ccccc2)sc2nc3c(cc12)C(=O)CCC3` . Its Activity was 59.85%

// Activity lookup, compound = `COc1cccc(C(=O)Nc2nc3ccc(Cl)cc3s2)c1` , result: 101.74%

Input `O=c1/c(=C/c2ccc(Cl)cc2Cl)sc2nc(-c3ccccc3)nn12` . Output Activity: 94.22%

In plain terms, `Cc1ccc(S(=O)(=O)NC2=NC(=O)/C(=C\c3ccccc3)S2)cc1` has a documented Activity of 99.26%

Just so you know, measured Activity for `Cc1ccc(NC(=O)c2sc3nc4c(cc3c2N)C(=O)CCC4)cc1Cl` came out at 119.21%

Sample `Clc1cccc(-c2nc(-c3cccs3)no2)c1` ; Activity observed: 100.21%

The reported value for `COc1ccc(NC(=O)c2sc3nc4c(cc3c2N)C(=O)CCC4)cc1` in terms of Activity is 116.88%

Lab book: Activity of `CC1(C)CCc2cc(-c3ccn(S(=O)(=O)c4ccccc4Cl)n3)ccc2O1` noted as 75.88%

For this compound ( `Cc1ccc(Cl)cc1NC(=O)c1sc2nc3c(cc2c1N)C(=O)CCC3` ), measured Activity is 80.57%

GET /value?item= `O=C(Nc1ccc(S(=O)(=O)Nc2nccs2)cc1)c1cccs1` &field=Activity returns 103.07%

// `Oc1ccccc1-c1nc(-c2cccs2)no1` : Activity value = 90.61%

According to the records, this compound `O=C(NCCc1ccc(Cl)cc1)c1[nH]c2ccccc2c1Cl` displays Activity of 97.33%

// `CC1(C)CC(=O)c2cc3c(N)c(C(=O)Nc4ccc(Cl)cc4)sc3nc2C1` : Activity value = 109.62%

###

System: SW-620
Assay: Cytotoxicity against human SW620 cells assessed as cellular growth at 10 uM by SRB assay
Format: functional
Measured attribute: Activity (%)
Give the number; % is assumed, so skip it.

Some solved cases for reference:
[[record]]
smiles = "COc1ccc(NC(=O)c2sc3nc4c(cc3c2N)C(=O)CCC4)cc1"
target_or_system = "SW-620"
measured_attribute = "Activity"
observed_value = 111.85

[[record]]
smiles = "Cc1ccc(Cl)cc1NC(=O)c1sc2nc3c(cc2c1N)C(=O)CCC3"
target_or_system = "SW-620"
measured_attribute = "Activity"
observed_value = 36.54

[[record]]
smiles = "Cc1ccc(S(=O)(=O)Oc2ccc(-c3cnc4ccccc4n3)cc2)cc1"
target_or_system = "SW-620"
measured_attribute = "Activity"
observed_value = 103.63

[[record]]
smiles = "COc1ccc(S(=O)(=O)n2ccc(-c3ccc4c(c3)CCC(C)(C)O4)n2)cc1"
target_or_system = "SW-620"
measured_attribute = "Activity"
observed_value = 90.28


Short answer for `CC1(C)CCc2cc(-c3ccn(S(=O)(=O)c4cccc(C(F)(F)F)c4)n3)ccc2O1` : Activity was 88.93
